TARGET: Mitogen-activated protein kinase kinase kinase 12 (Homo sapiens) (UniProt Q12852)
Sequence (Q12852 whole entry, looked up): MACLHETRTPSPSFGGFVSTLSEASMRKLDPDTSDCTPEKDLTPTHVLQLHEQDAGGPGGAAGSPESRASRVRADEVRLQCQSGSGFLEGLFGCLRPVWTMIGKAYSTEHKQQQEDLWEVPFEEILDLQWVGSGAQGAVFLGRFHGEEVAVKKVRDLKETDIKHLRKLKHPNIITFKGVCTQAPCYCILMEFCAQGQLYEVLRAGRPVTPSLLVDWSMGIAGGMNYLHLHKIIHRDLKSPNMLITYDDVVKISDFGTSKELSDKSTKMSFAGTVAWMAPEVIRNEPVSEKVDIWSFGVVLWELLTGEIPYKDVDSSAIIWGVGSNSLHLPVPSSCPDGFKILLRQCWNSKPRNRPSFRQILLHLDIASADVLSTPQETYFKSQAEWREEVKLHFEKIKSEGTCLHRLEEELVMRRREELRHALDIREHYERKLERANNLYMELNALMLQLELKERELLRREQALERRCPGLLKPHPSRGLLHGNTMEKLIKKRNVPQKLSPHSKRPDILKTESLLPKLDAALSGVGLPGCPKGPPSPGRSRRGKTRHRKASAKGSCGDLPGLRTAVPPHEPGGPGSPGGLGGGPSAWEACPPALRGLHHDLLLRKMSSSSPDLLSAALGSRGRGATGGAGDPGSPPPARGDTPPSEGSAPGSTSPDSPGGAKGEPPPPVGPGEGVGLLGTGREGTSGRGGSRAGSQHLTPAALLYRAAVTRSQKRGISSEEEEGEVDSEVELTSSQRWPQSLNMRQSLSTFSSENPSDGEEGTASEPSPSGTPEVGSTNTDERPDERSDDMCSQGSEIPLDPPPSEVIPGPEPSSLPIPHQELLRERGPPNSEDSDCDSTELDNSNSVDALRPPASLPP
TEST: Inhibition of DLK (unknown origin) using myelin basic protein as substrate preincubated for 15 mins measured after 30 mins in presence of [gamma-32P]ATP by scintillation counting
pIC50: −log10 of the molar value.
READOUT_NAME: pIC50

>>> experimental_result("CCSCc1ccc2c(c1)c1c3c(c4c5cc(CSCC)ccc5n5c4c1n2[C@H]1C[C@](O)(C(=O)OC)[C@]5(C)O1)CNC3=O [CEP-1347]")
6.94

Values were extracted from ChEMBL document CHEMBL4196101.
